Ref: patent US20250011363A1

Parameter Binding affinity (RU): see the listing below.
- assayedTarget: acetylcholine receptor
- experimentDescription: SPR, AchR on CM5 chip, peptide 10 µM
Respond with the bare value in RU.

INSERT INTO assay_data (binder, measuredattribute, unitabbreviation, measvalue) VALUES
  ('RKYTKK [6mer-1-1191]', 'Binding affinity (RU)', 'RU', 39);

Q: Field request: Binding affinity (RU) | item: RRKAER [6mer-1-1132]
Ans: 31

Q: Field request: Binding affinity (RU) | item: RKIAFK [6mer-1-1171]
Ans: 40

Q: Field request: Binding affinity (RU) | item: RRDWAK [6mer-1-1160]
Ans: 29
